- assay overview: Agonist activity at monkey glucagon receptor expressed in HEK293 cells assessed as cAMP accumulation after 30 mins by HTRF assay
- Type: cell-based, Macaca mulatta
- test context: hek293
measurement kind: EC50 (pM)
One number for each entry, in pM.

[Q] Recorded EC50 for "GLUCAGON" , please?
[A] 1.5
